Source: the supplement of paper PMC6555819

Tested on: PPARa:RXRa (NR concentration 270 nM, RXRa partner concentration 90 nM)
test-protocol: PBM binding z-score (relative to random genomic background probes); higher = stronger binding; sequences stand for … in GC…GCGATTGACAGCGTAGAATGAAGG
readout-label: PBM binding z-score
Answers are plain numbers.

// below: answered sequences
In [3]: df
Out[3]:
                     primary_sequence  measured_number
0  TGAATGAGCTTATAAGATCAGGGAACGTTGCAAA           -0.485
1  CATACAGGGTTAGCTAGGCCAGAGTAGGGACGGC            0.689
2  CCAGACATGTGAAAGGTAACTCAGTCTGGTACGC             1.02
3  TCTGCTAGGTCAACGATGGTTAGCTAATCTGCTA             3.09
4  ATCGGAAGGTCGTGAGGTGAGTATACAGAAAGGC             3.13

Attention now turns to another entry.
Param item = TCTTGTATATCAAAGGTTAAGAAAGCCGAAGCCT ; retrieve measured PBM binding z-score.
3.79

----------
Test system: FXR:RXRa (NR concentration 270 nM, RXRa partner concentration 90 nM)
test-protocol: PBM binding z-score (relative to random genomic background probes); higher = stronger binding; sequences stand for … in GC…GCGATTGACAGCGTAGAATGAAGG
The label depends only on PBM binding z-score: yes (1) if it is at least 1, no (0) if it is smaller.

>>> df
                     primary_sequence  class_label
0  TGTTAAAGTTCAAAGGTAACGTAAGTATCCACAC      yes (1)
1  CCTACTGGGCCAAAAAGGTGATTGATGCCGATAA       no (0)
2  ATCTCTAGGTAAAAGTTCAGTGGATCCCGAGGAT      yes (1)

Is it the case that CCTACTGTGCCATCAGGTCATTGATATCAACGTT has PBM binding z-score reaching or exceeding 1?
yes (1)

Reported PBM binding z-score reaches at least 1 for TCCTATAGGTAAACAGGTGAAAGTCCGTAAGTTA ?
no (0)

PBM binding z-score >= 1 for CCTACTGGGCCACGAAAGGTCATCGATTCAGTGA ?
yes (1)

Please check the record CCGGCTGGGGCAAAGGTTACCATACTCAGTACGA and state if its PBM binding z-score is at or above 1.
yes (1)

Is PBM binding z-score at least 1? Consider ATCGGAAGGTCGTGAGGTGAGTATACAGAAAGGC
yes (1)

Kindly determine if PBM binding z-score recorded for AGTCAAAGTTCAATAGGTAACGTAAGATTCAGCT is above or exactly 1.
yes (1)

Item CAGCCTAGGTCAAGGCCAGTATAGGAGGAACGTT with PBM binding z-score of 1 or above?
yes (1)

----------
Test system: THRa homodimer (NR concentration 90 nM)
test-protocol: PBM binding z-score (relative to random genomic background probes); higher = stronger binding; sequences stand for … in GC…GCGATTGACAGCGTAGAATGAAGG
Rule: Fulfilled for PBM binding z-score not less than 0.9, Not fulfilled for anything less.

Known results for sequences:
                     primary_sequence    class_label
0  CGAAATAGGTCAGAACAGGACAGTGAAGGATGAT  Not fulfilled
1  TTACCATGGTGAGCTGAGGTCGTTGATCCAACTC      Fulfilled
2  TGAATGAGATTAAAGATCAGGGAACGTGGCGTCG  Not fulfilled
3  ACTAGCAGGCCAAGGGTCACGCAAGATTAGTCCG  Not fulfilled

Item ATATGTAGGTTAGCTCGGGTCATTCAGACTAGGC with PBM binding z-score of 0.9 or above?
Fulfilled

----------
Kindly state PBM binding z-score for each of the entries shown.
Tested on: RARa homodimer (NR concentration 270 nM)
test-protocol: PBM binding z-score (relative to random genomic background probes); higher = stronger binding; sequences stand for … in GC…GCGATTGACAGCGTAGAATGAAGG
Numbers only.

Some entries whose results are on file:
>>> print(df.to_string())
                     primary_sequence  measured_number
0  CCTTACGGGTCAAGTTTATAGCACGGGTGGTACG             1.46
1  TATACAGGGTCAAAGGCCAGATTACGAATGTCGA             1.67
2  TCATATAGGTAAATGCTTGGTGAAAGTCCGATCT             1.11
3  CAAACTGGGTCACGAAAGGTCAAAGTCGAATGAC             2.73
4  AGAATGAGATTATACGTAGATCAGGGAAGAAAGT            0.366
5  ATATGTCGGTTAAGGGTCATTCAGGTTGGTTCGC             2.84
6  ATACCAAGGTAATCGTGAGGTCGTTGATACTAAC          -0.0819
7  ACTAGCAAGCCAAGTTTGGGTCACTCAAACAAAG           -0.901

Please state, for each entry, its recorded PBM binding z-score.
1. ATCTCTAGGTAAAGATAGTTCGGTGAATGCAAAT
2. GCGACTGGGGCATCAGGAGGTTACCATAACTTAA
3. GCTGCTATGTCAGGTTGGTCAGCTAACGGGTACG
4. TGTCAAAGTTCAAAGGTAACGTAGGTATCCACAC

1: 0.697; 2: -0.466; 3: -0.632; 4: 1.57

----------
Test system: RARb homodimer (NR concentration 270 nM)
test-protocol: PBM binding z-score (relative to random genomic background probes); higher = stronger binding; sequences stand for … in GC…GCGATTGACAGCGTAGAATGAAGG
Kind request: treat 1 as inclusive, so PBM binding z-score at 1 or higher is TRUE, anything lower is FALSE.

Some solved cases for reference:
>>> df
                     primary_sequence                              study_target  class_label
0  TCATATAGTTAAATGCTAGGTGAAAGTCCGATCT  RARb homodimer (NR concentration 270 nM)        FALSE
1  ATCGAAAGGTCGAGGTTAGTATAGAGAAAGGGAA  RARb homodimer (NR concentration 270 nM)         TRUE
2  CCTACTGGGCCAATGGTCATTGATTCCAATGCTC  RARb homodimer (NR concentration 270 nM)        FALSE
3  CCTACTGGGCCAAAGTTCATTGATTCCAATGCTC  RARb homodimer (NR concentration 270 nM)         TRUE
4  GCGCCTGGGGCATCAGCAGGTTACCATAACTTAA  RARb homodimer (NR concentration 270 nM)        FALSE

Answer whether PBM binding z-score of TAGCCTAGGTCATTGGTCCAGTATAGTACGCATC is greater than or equal to 1.
TRUE

Quick check, PBM binding z-score >= 1? CAAACTAGGTCACGAAGGGTCAAAGTCGAATGAC
TRUE

// inclusive: PBM binding z-score at least 1? input: AGTACGAGGGCAATGAGTTGATAGCACGGGTGGC
TRUE

Is PBM binding z-score at least 1? Consider AGAATGAGGTTGCCAAAGATCAGGGAAACGCTTG
FALSE

Dear colleague, could you confirm whether ATATGTAGGTTACATCCGGGTCATTAAGGCTATG has PBM binding z-score at or above 1?
TRUE

Reported PBM binding z-score at or above 1? CTCGAACGGTCGGTTGAGGTGAGTATACGGATAA
FALSE

----------
Test system: PPARg homodimer (NR concentration 180 nM)
test-protocol: PBM binding z-score (relative to random genomic background probes); higher = stronger binding; sequences stand for … in GC…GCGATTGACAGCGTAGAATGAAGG
Mark no for PBM binding z-score values under 2, and yes for everything at or above.

Solved cases below.
                     primary_sequence  class_label
0  GTACCAAGGTGAATAGGTGGTTGATGAGTAGGCG           no
1  CCGACTGTGGCAAAGGTTACCATACTCAGTACGA           no
2  TATACAGGGTCAAAGGCCAGAGTACGAATGTCGA          yes

Could you verify whether the entry CCTACTAGGCCAAAGGTCATTGATTCCAATGCTC shows PBM binding z-score of no less than 2?
yes

Assess whether reported PBM binding z-score for ACTCGGAGGACAAAGGTCAGACCTACGCCAGTGA sits at 2 or higher.
yes

API: above_or_equal(metric=PBM binding z-score, cutoff=2) for item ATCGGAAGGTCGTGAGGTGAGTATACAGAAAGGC
no

----------
Test system: LXRa:RXRa (NR concentration 270 nM, RXRa partner concentration 90 nM)
test-protocol: PBM binding z-score (relative to random genomic background probes); higher = stronger binding; sequences stand for … in GC…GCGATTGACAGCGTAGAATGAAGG
Criterion: PBM binding z-score meeting or surpassing 5. Met: T. Not met: F.

Completed entries (count: 8):
>>> print(df.to_string())
                     primary_sequence                              study_target  class_label
0  TAGCCTAGGTCAGATCGGGCCATTATACGCTATA  LXRa:RXRa (NR concentration 270 nM, RXRa partner concentration 90 nM)            F
1  CAAACTAGGTCAAGAGGTCAGAGTCCGCTTCCCG  LXRa:RXRa (NR concentration 270 nM, RXRa partner concentration 90 nM)            T
2  CAAACTAGGTCACAGCGGTCAAAGTCCGTGCGTA  LXRa:RXRa (NR concentration 270 nM, RXRa partner concentration 90 nM)            T
3  CGTCCAAGGTCATAGGAGGTCCGTGAAGACAGAT  LXRa:RXRa (NR concentration 270 nM, RXRa partner concentration 90 nM)            T
4  CGAACTAGGTCATCCAGGACGGTGAATACATTGA  LXRa:RXRa (NR concentration 270 nM, RXRa partner concentration 90 nM)            F
5  CCTTACGGGTCACTAACAGGTTATAGCATTTGGA  LXRa:RXRa (NR concentration 270 nM, RXRa partner concentration 90 nM)            F
6  TGTCAAAGTACAAAGGTAACGTAAGTATCCACAC  LXRa:RXRa (NR concentration 270 nM, RXRa partner concentration 90 nM)            F
7  CGTCCAAGGTCAGAGAGGGCAGTGAATGCCGAGT  LXRa:RXRa (NR concentration 270 nM, RXRa partner concentration 90 nM)            F

Would you say ATATCTAGGTTAGCTGGGGTCATTCAGACTAGGC shows PBM binding z-score at minimum 5?
T
